Biological target: UniProt P9WKE1
Sequence (P9WKE1 whole entry, looked up): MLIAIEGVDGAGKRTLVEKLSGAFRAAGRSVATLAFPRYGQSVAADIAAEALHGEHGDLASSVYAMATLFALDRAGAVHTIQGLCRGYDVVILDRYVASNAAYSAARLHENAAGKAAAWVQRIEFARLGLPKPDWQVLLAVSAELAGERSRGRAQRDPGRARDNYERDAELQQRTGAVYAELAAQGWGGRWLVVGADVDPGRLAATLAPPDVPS
Test: MtbTMPK enzymatic assay (spectrophotometric coupled assay)
Format: biochemical
Settings: ATP 0.5 mM, dTMP 0.05 mM; mean ± SD of at least two measurements; NI: no inhibition at a concentration of 0.2 mM; read-out: IC50 (MtbTMPK)
reported.property: pIC50
Lab note — pIC50 values are minus log10 of concentrations in M.

Here's what some known entries look like.
# compound, pIC50
data = [
    ("Cc1ccc(Oc2cccc(CCN3CCC(n4cc(C)c(=O)[nH]c4=O)CC3)c2)cc1 [Compound 21f]", 4.31),
    ("COc1ccc(Oc2cccc(CCN3CCC(n4cc(C)c(=O)[nH]c4=O)CC3)c2)cc1 [Compound 21i]", 4.47),
    ("Cc1cn(C2CCN(CCc3ccccc3Oc3ccccc3)CC2)c(=O)[nH]c1=O [Compound 21c]", 4.00),
    ("Cc1cn(C2CCN(CCc3cccc(Oc4ccc(C(F)(F)F)cc4)c3)CC2)c(=O)[nH]c1=O [Compound 21m]", 3.87),
]

Input line: GET /values?readout=pIC50&system=UniProt P9WKE1&item= Cc1cn(C2CCN(CCc3ccc(Oc4ccccc4)cc3)CC2)c(=O)[nH]c1=O [Compound 21e]
Output line: 3.80

Origin of measurements: paper PMC7356956
